Target: Soluble mouse EPOR chimera proteins (erythropoietin receptor) (Mus musculus)
Construct: Soluble mouse EPOR chimera proteins; purchased R&D Systems
Sequence (P14753 25-249 limits assumed): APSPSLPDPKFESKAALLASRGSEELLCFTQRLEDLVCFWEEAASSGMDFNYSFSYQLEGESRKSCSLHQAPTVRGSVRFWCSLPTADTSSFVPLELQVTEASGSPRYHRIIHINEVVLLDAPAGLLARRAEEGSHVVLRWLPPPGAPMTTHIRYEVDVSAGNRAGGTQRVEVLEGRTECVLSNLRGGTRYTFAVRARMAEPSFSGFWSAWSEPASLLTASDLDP
Experiment: Surface plasmon resonance (SPR) binding affinity to erythropoietin receptor
Conditions: association rate, Table 8
Peptide text beside a SMILES is read from it.
observation.type: Ka

compound="CC(C)[C@H](NC(=O)[C@H](CCCNC(=N)N)NC(=O)[C@@H](N)[C@@H](C)O)C(=O)N[C@@H](CC(N)=O)C(=O)N[C@@H](Cc1ccc(O)cc1)C(=O)N[C@@H](CCC(N)=O)C(=O)N[C@@H](C)C(=O)N[C@@H](Cc1c[nH]c2ccccc12)C(=O)N[C@@H](CCCCN)C(=O)N[C@@H](CCCNC(=N)N)C(=O)O [ML3-1] (H-TRVNYQAWKR-OH; N-terminus and C-terminus assumed)" data_value="3.08 × 10^3"

Then there is this compound:
Enquiry: Short answer please: Ka, Soluble mouse EPOR chimera proteins (erythropoietin receptor) (Mus musculus), entry CC(C)C[C@H](NC(=O)CNC(=O)[C@H](C)N)C(=O)N[C@@H](CCCNC(=N)N)C(=O)N[C@@H](CO)C(=O)N[C@@H](CCCNC(=N)N)C(=O)N[C@@H](C)C(=O)N[C@@H](Cc1c[nH]cn1)C(=O)N[C@@H](CC(C)C)C(=O)N[C@@H](CCCNC(=N)N)C(=O)N[C@@H](CCCNC(=N)N)C(=O)N[C@@H](C)C(=O)N[C@@H](CC(C)C)C(=O)N[C@@H](C)C(=O)O [ML5-1] (H-AGLRSRAHLRRALA-OH; N-terminus and C-terminus assumed)
Return: 4.42 × 10^2

Values from patent US10808018B2
